- measuredTarget: α-syn fibrils (Homo sapiens)
- assayDetails: α-Synuclein fibril/ligand saturation binding assay
- assayContext: Kd α-syn, Table 1; synthetic α-syn fibrils 2.5 μM, 1 hour; mean ± SD (n = 3)
measuredProperty: pKd
Recall that pKd is obtained by taking minus log10 of the concentration measured in molar.

Inquiry: For O=C1/C(=C\c2cc(-c3cccnc3)cs2)Cc2ccccc21 [compound 47] , write its pKd.
Reply text: 6.48

Inquiry: For CN(C)c1ncc(-c2ccc(/C=C3/Cc4ccccc4C3=O)s2)cn1 [compound 41] , write its pKd.
Reply text: 6.57

Inquiry: For Cc1ccc2occ(/C=C3/Cc4ccc(O)cc4C3=O)c(=O)c2c1 [compound 57] , write its pKd.
Reply text: 6.18

Inquiry: For COc1cc(C=CC=C2C(=O)Oc3ccccc3C2=O)ccc1O [compound 25] , write its pKd.
Reply text: 6.93

Inquiry: For CN(C)c1ccc(/C=C/C=C2\CCc3ccccc3C2=O)cc1 [compound 24] , write its pKd.
Reply text: 7.01

---

- assayDetails: Absorption/emission maxima and fluorescence quantum yield of free ligand in PBS
- Type: physicochemical
- assayContext: free ligand in PBS
measuredProperty: Emmax
// response body must contain only the number

Inquiry: For O=C1/C(=C/C=C/c2ccc([N+](=O)[O-])cc2)Cc2ccc(O)cc21 [compound 13] , write its Emmax.
Reply text: 443

Inquiry: For O=C1/C(=C/C=C/c2ccc(Br)cc2)Cc2ccc(O)cc21 [compound 11] , write its Emmax.
Reply text: 429

Inquiry: For O=C1/C(=C\c2cc(-c3ccc(CO)cc3)cs2)Cc2ccccc21 [compound 46] , write its Emmax.
Reply text: 454

Inquiry: For COc1cc(C=CC=C2C(=O)Oc3ccccc3C2=O)ccc1O [compound 25] , write its Emmax.
Reply text: 621

Inquiry: For Cc1ccc2occ(C=C3C(=O)c4ccccc4C3=O)c(=O)c2c1 [compound 53] , write its Emmax.
Reply text: 471

Inquiry: For O=C1/C(=C\c2ccc(-c3ccc(CO)cc3)s2)Cc2ccc(O)cc21 [compound 44] , write its Emmax.
Reply text: 545

Inquiry: For CN(C)c1ccc(/C=C/C=C2\Cc3ccccc3C2=O)cc1 [compound 9] , write its Emmax.
Reply text: 589

Inquiry: For COc1ncc(-c2ccc(/C=C3/Cc4ccccc4C3=O)s2)c(OC)n1 [compound 42] , write its Emmax.
Reply text: 547

Inquiry: For O=C(O)c1ccc(-c2ccc(/C=C/C=C3C(=O)c4ccccc4C3=O)cc2)s1 [compound 35] , write its Emmax.
Reply text: 556

---

- measuredTarget: α-syn fibrils (Homo sapiens)
- assayDetails: α-Synuclein fibril/ligand saturation binding assay
- assayContext: Kd α-syn, Table 1; synthetic α-syn fibrils 2.5 μM, 1 hour; mean ± SD (n = 3)
Class membership depends on Kd alone; the intervals are bin 1: < 90 nM; bin 2: ≥ 90 nM and < 300 nM; bin 3: ≥ 300 nM

Inquiry: Any idea which band O=C1C(=CC2=C(Cl)c3ccccc3CC2)C(=O)c2ccccc21 is in?
Reply text: bin 3

Inquiry: Any idea which band O=C1C(=C/C=C/c2ccccc2)C(=O)c2ccccc21 is in?
Reply text: bin 3

Inquiry: Any idea which band O=C(O)c1ccc(-c2ccc(/C=C/C=C3C(=O)c4ccccc4C3=O)cc2)s1 is in?
Reply text: bin 1

Inquiry: Any idea which band O=C1C(=C/C=C/c2ccc(Br)cc2)C(=O)c2ccccc21 is in?
Reply text: bin 3

Inquiry: Any idea which band COc1ncc(-c2ccc(/C=C3/Cc4ccccc4C3=O)s2)c(OC)n1 is in?
Reply text: bin 2

Inquiry: Any idea which band COc1cc(/C=C/C=C2\CCc3ccccc3C2=O)ccc1O is in?
Reply text: bin 1

Inquiry: Any idea which band O=C1/C(=C\c2cc(-c3ccc(CO)cc3)cs2)Cc2ccccc21 is in?
Reply text: bin 2

Inquiry: Any idea which band CN(C)c1ccc(/C=C/C=C2\Cc3ccccc3C2=O)cc1 is in?
Reply text: bin 1

Inquiry: Any idea which band O=C1C(=Cc2cc(-c3ccc(Br)cc3)no2)C(=O)c2ccccc21 is in?
Reply text: bin 3

Inquiry: Any idea which band COc1cc(/C=C/C=C2C(=O)c3ccccc3C2=O)cc(OC)c1O is in?
Reply text: bin 2

Inquiry: Any idea which band CN(C)c1ccc(C=CC=C2C(=O)Oc3ccc(Br)cc3C2=O)cc1 is in?
Reply text: bin 3

Inquiry: Any idea which band COc1cc(-c2ccc(/C=C3/Cc4ccccc4C3=O)s2)ccc1O is in?
Reply text: bin 2

Inquiry: Any idea which band COc1cc(-c2ccc(/C=C/C=C3\Cc4ccccc4C3=O)cc2)ccc1O is in?
Reply text: bin 1

Inquiry: Any idea which band O=C1/C(=C/C=C/c2ccc([N+](=O)[O-])cc2)Cc2ccc(O)cc21 is in?
Reply text: bin 3

Inquiry: Any idea which band O=C1C(=Cc2cc3ccccc3[nH]2)C(=O)c2ccccc21 is in?
Reply text: bin 3

Inquiry: Any idea which band Nc1cccc(-c2ccc(/C=C3/Cc4ccccc4C3=O)s2)c1 is in?
Reply text: bin 2

Inquiry: Any idea which band O=C1C(=C/C=C/c2ccc([N+](=O)[O-])cc2)C(=O)c2ccccc21 is in?
Reply text: bin 3
